src = patent US20260176275A1

Biological target: eukaryotic initiation factor (elF4E) (Homo sapiens, UniProt P06730)
Sequence (P06730 whole entry): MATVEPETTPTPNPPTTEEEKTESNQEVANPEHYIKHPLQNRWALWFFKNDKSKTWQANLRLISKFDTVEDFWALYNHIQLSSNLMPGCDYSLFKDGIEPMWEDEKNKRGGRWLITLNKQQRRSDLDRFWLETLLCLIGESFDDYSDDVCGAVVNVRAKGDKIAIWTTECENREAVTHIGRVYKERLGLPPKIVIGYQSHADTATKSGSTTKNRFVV
Assay: Assay of binding ability to eukaryotic initiation factor (elF4E), Biacore T100
Conditions: cap analog to elF4E protein; running buffer pH 6.0 or 7.4; read-out: Binding constant (converted)
measuredProperty: Kd (nM)
Numbers only here, please. The scale is nM.

What value of measured Kd is listed for COC1C(OP(=O)(O)OC[C@H]2O[C@@H](n3cnc4c(=O)[nH]c(N)nc43)C(O)C2O)[C@@H](COP(=O)(O)OP(=O)(O)OP(=O)(O)/C=C/[C@H]2O[C@@H](n3c[n+](C)c4c(=O)[nH]c(N)nc43)CC2OC)O[C@H]1n1cnc2c(N)ncnc21 (stereo partly drawn) [Compound 13] ?
265

Another: CCCC(=O)NCC1C(O)[C@H](n2c[n+](C)c3c(=O)[nH]c(N)nc32)O[C@@H]1/C=C/P(=O)(O)OP(=O)(O)OP(=O)(O)OC[C@H]1O[C@@H](n2cnc3c(N)ncnc32)C(OC)C1OP(=O)(O)OC[C@H]1O[C@@H](n2cnc3c(=O)[nH]c(N)nc32)C(O)C1O (stereo partly drawn) [Compound 34]
236

How about this compound: COCC1C(O)[C@H](n2c[n+](C)c3c(=O)[nH]c(N)nc32)O[C@@H]1/C=C/P(=O)(O)OP(=O)(O)OP(=O)(O)OC[C@H]1O[C@@H](n2cnc3c(N)ncnc32)C(OC)C1OP(=O)(O)OC[C@H]1O[C@@H](n2cnc3c(=O)[nH]c(N)nc32)C(O)C1O (stereo partly drawn) [Compound 11]
246
